- Test system: Klebsiella pneumoniae Kp BM1
- Format: cell-based
- measurement conditions: Kp BM1
Where a SMILES comes first, the peptide text is derived from it. Bridges are numbered along the chain shown (N, C = ends). [ ]: non-standard residue; d: D form. The star is where a group is joined. Propanoyl(3-indol-3-yl) = O=C(CCc1c[nH]c2ccccc12)*; X49 = O=C(c1cnc(C(F)(F)F)nc1)*; X20 = O=C(c1ccc(C(F)(F)F)s1)*; X25 = O=C(c1ccnc(Cl)c1)*; X29 = O=C(c1cc(Cl)ccn1)*; Dab = NCC[C@H](N)C(=O)O; Abu = CC[C@H](N)C(=O)O; Dap = NC[C@H](N)C(=O)O; X8 = O=C(c1ccnc(F)c1)*
parameter measured: Minimum inhibitory concentration (µg/mL)

compound	comparative sign	reported value
CC[C@@H]1NC(=O)[C@@H](CC(C)C)NC(=O)[C@H](CCN)NC(=O)[C@@H](NC(=O)[C@H](CN)NC(=O)[C@@H](NC(=O)[C@H](CCN)NC(=O)c2ccc(C(F)(F)F)s2)[C@@H](C)O)CCNC(=O)[C@H]([C@@H](C)O)NC(=O)[C@H](CCN)NC(=O)[C@H](CCN)NC1=O [Compound 86] (X20-[Dab]T[Dap][Dab][Dab][dL][Abu][Dab][Dab]T; lactam 4-C)	=	0.25
CC[C@@H]1NC(=O)[C@@H](CC(C)C)NC(=O)[C@H](CCN)NC(=O)[C@@H](NC(=O)[C@H](CN)NC(=O)[C@@H](NC(=O)[C@H](CCN)NC(=O)c2ccnc(F)c2)[C@@H](C)O)CCNC(=O)[C@H]([C@@H](C)O)NC(=O)[C@H](CCN)NC(=O)[C@H](CCN)NC1=O [Compound 31] (X8-[Dab]T[Dap][Dab][Dab][dL][Abu][Dab][Dab]T; lactam 4-C)	=	1
CC[C@@H]1NC(=O)[C@@H](CC(C)C)NC(=O)[C@H](CCN)NC(=O)[C@@H](NC(=O)[C@H](CN)NC(=O)[C@@H](NC(=O)[C@H](CCN)NC(=O)c2ccnc(Cl)c2)[C@@H](C)O)CCNC(=O)[C@H]([C@@H](C)O)NC(=O)[C@H](CCN)NC(=O)[C@H](CCN)NC1=O [Compound 24] (X25-[Dab]T[Dap][Dab][Dab][dL][Abu][Dab][Dab]T; lactam 4-C)	=	0.25
CC(C)C[C@H]1NC(=O)[C@H](CCN)NC(=O)[C@@H](NC(=O)[C@H](CN)NC(=O)[C@@H](NC(=O)[C@H](CCN)NC(=O)c2cc(Cl)ccn2)[C@@H](C)O)CCNC(=O)[C@H]([C@@H](C)O)NC(=O)[C@H](CCN)NC(=O)[C@H](CCN)NC(=O)[C@H]([C@@H](C)O)NC1=O [Compound 98] (X29-[Dab]T[Dap][Dab][Dab][dL]T[Dab][Dab]T; lactam 4-C)	=	0.25
CC[C@@H]1NC(=O)[C@@H](CC(C)C)NC(=O)[C@H](CCN)NC(=O)[C@@H](NC(=O)[C@H](CN)NC(=O)[C@@H](NC(=O)[C@H](CCN)NC(=O)c2cnc(C(F)(F)F)nc2)[C@@H](C)O)CCNC(=O)[C@H]([C@@H](C)O)NC(=O)[C@H](CCN)NC(=O)[C@H](CCN)NC1=O [Compound 45] (X49-[Dab]T[Dap][Dab][Dab][dL][Abu][Dab][Dab]T; lactam 4-C)	=	0.5
CC[C@@H]1NC(=O)[C@@H](CC(C)C)NC(=O)[C@H](CCN)NC(=O)[C@@H](NC(=O)[C@H](CN)NC(=O)[C@@H](NC(=O)[C@H](CCN)NC(=O)CCc2c[nH]c3ccccc23)[C@@H](C)O)CCNC(=O)[C@H]([C@@H](C)O)NC(=O)[C@H](CCN)NC(=O)[C@H](CCN)NC1=O [Compound 104] ({Propanoyl(3-indol-3-yl)}-[Dab]T[Dap][Dab][Dab][dL][Abu][Dab][Dab]T; lactam 4-C)	<	0.125
